# RUN_CONDITIONS: in methanol, 323.15 K
ENDPOINT_LABEL: solubility (mole fraction)
Give bare numbers.

Query: Quick one: solubility (mole fraction) of O=C(O)c1cc([N+](=O)[O-])ccc1O ?
Result: 0.0807

* * *

# RUN_CONDITIONS: in isobutanol, 303.15 K
ENDPOINT_LABEL: solubility (mole fraction)
Answers are plain numbers.

Query: Give its solubility (mole fraction) value. Item: O=C(O)c1cc([N+](=O)[O-])ccc1O
Result: 0.0296

* * *

# RUN_CONDITIONS: in n-butanol, 293.15 K
ENDPOINT_LABEL: solubility (mole fraction)

Query: Which solubility (mole fraction) is listed for O=C(O)c1cc([N+](=O)[O-])ccc1O ?
Result: 0.0275

* * *

# RUN_CONDITIONS: in water, 308.15 K
ENDPOINT_LABEL: solubility (mole fraction)

Query: Would you kindly share the measured solubility (mole fraction) for O=C(O)c1cc([N+](=O)[O-])ccc1O ?
Result: 0.000133

* * *

# RUN_CONDITIONS: in water, 298.15 K
ENDPOINT_LABEL: solubility (mole fraction)
Give bare numbers.

Query: Looking for the measured solubility (mole fraction) of O=C(O)c1cc([N+](=O)[O-])ccc1O , can you help?
Result: 8.62e-05

* * *

# RUN_CONDITIONS: in water, 318.15 K
ENDPOINT_LABEL: solubility (mole fraction)
One number for each entry.

Query: solubility (mole fraction) for O=C(O)c1cc([N+](=O)[O-])ccc1O ?
Result: 0.000202

* * *

# RUN_CONDITIONS: in isopropanol, 283.15 K
ENDPOINT_LABEL: solubility (mole fraction)
One number for each entry.

Query: Item O=C(O)c1cc([N+](=O)[O-])ccc1O has what recorded solubility (mole fraction)?
Result: 0.0286

* * *

# RUN_CONDITIONS: in acetonitrile, 293.15 K
ENDPOINT_LABEL: solubility (mole fraction)

Query: GET /values?readout=solubility (mole fraction)&item= O=C(O)c1cc([N+](=O)[O-])ccc1O
Result: 0.0481

* * *

# RUN_CONDITIONS: in methanol, 313.15 K
ENDPOINT_LABEL: solubility (mole fraction)
Answers are plain numbers.

Query: Item under review: O=C(O)c1cc([N+](=O)[O-])ccc1O . Reported solubility (mole fraction)?
Result: 0.0661

* * *

# RUN_CONDITIONS: in NMP, 323.15 K
ENDPOINT_LABEL: solubility (mole fraction)
One number for each entry.

Query: Field request: solubility (mole fraction) | item: O=C(O)c1cc([N+](=O)[O-])ccc1O
Result: 0.223

* * *

# RUN_CONDITIONS: in 1,4-dioxane, 323.15 K
ENDPOINT_LABEL: solubility (mole fraction)
Answers are plain numbers.

Query: Name the reported solubility (mole fraction) value associated with the compound O=C(O)c1cc([N+](=O)[O-])ccc1O
Result: 0.168

* * *

# RUN_CONDITIONS: in ethanol, 303.15 K
ENDPOINT_LABEL: solubility (mole fraction)

Query: // lookup solubility (mole fraction) for O=C(O)c1cc([N+](=O)[O-])ccc1O
Result: 0.0481

* * *

# RUN_CONDITIONS: in isobutanol, 308.15 K
ENDPOINT_LABEL: solubility (mole fraction)
Give bare numbers.

Query: // returns reported solubility (mole fraction) for input O=C(O)c1cc([N+](=O)[O-])ccc1O
Result: 0.0343

* * *

# RUN_CONDITIONS: in NMP, 283.15 K
ENDPOINT_LABEL: solubility (mole fraction)

Query: Which measured solubility (mole fraction) value corresponds to O=C(O)c1cc([N+](=O)[O-])ccc1O ?
Result: 0.111

* * *

# RUN_CONDITIONS: in water, 283.15 K
ENDPOINT_LABEL: solubility (mole fraction)
One number for each entry.

Query: Which measured solubility (mole fraction) value corresponds to O=C(O)c1cc([N+](=O)[O-])ccc1O ?
Result: 3.95e-05

* * *

# RUN_CONDITIONS: in 1,4-dioxane, 313.15 K
ENDPOINT_LABEL: solubility (mole fraction)
Give bare numbers.

Query: Given the compound O=C(O)c1cc([N+](=O)[O-])ccc1O , what is its reported solubility (mole fraction)?
Result: 0.147

* * *

# RUN_CONDITIONS: in 1,4-dioxane, 303.15 K
ENDPOINT_LABEL: solubility (mole fraction)
Answers are plain numbers.

Query: I would be grateful if you could share the reported solubility (mole fraction) for O=C(O)c1cc([N+](=O)[O-])ccc1O .
Result: 0.129

* * *

# RUN_CONDITIONS: in n-butanol, 318.15 K
ENDPOINT_LABEL: solubility (mole fraction)

Query: Which solubility (mole fraction) is reported for this molecule? O=C(O)c1cc([N+](=O)[O-])ccc1O
Result: 0.0533

* * *

# RUN_CONDITIONS: in n-butanol, 313.15 K
ENDPOINT_LABEL: solubility (mole fraction)
Numbers only.

Query: I am curious: what solubility (mole fraction) value has been reported for O=C(O)c1cc([N+](=O)[O-])ccc1O ?
Result: 0.0474

* * *

# RUN_CONDITIONS: in acetonitrile, 323.15 K
ENDPOINT_LABEL: solubility (mole fraction)
One number for each entry.

Query: Look up solubility (mole fraction) for this molecule: O=C(O)c1cc([N+](=O)[O-])ccc1O
Result: 0.102

* * *

# RUN_CONDITIONS: in acetonitrile, 308.15 K
ENDPOINT_LABEL: solubility (mole fraction)
One number for each entry.

Query: Please report the recorded solubility (mole fraction) for O=C(O)c1cc([N+](=O)[O-])ccc1O .
Result: 0.0724

* * *

# RUN_CONDITIONS: in water, 323.15 K
ENDPOINT_LABEL: solubility (mole fraction)
Numbers only.

Query: Name the recorded solubility (mole fraction) for O=C(O)c1cc([N+](=O)[O-])ccc1O .
Result: 0.000253

* * *

# RUN_CONDITIONS: in ethyl acetate, 288.15 K
ENDPOINT_LABEL: solubility (mole fraction)
One number for each entry.

Query: Given O=C(O)c1cc([N+](=O)[O-])ccc1O , state its recorded solubility (mole fraction).
Result: 0.027

* * *

# RUN_CONDITIONS: in n-butanol, 278.15 K
ENDPOINT_LABEL: solubility (mole fraction)

Query: Give its solubility (mole fraction) value. Item: O=C(O)c1cc([N+](=O)[O-])ccc1O
Result: 0.0173

* * *

# RUN_CONDITIONS: in isobutanol, 323.15 K
ENDPOINT_LABEL: solubility (mole fraction)
Give bare numbers.

Query: May I ask what solubility (mole fraction) has been recorded for O=C(O)c1cc([N+](=O)[O-])ccc1O ?
Result: 0.0495

* * *

# RUN_CONDITIONS: in DMF, 288.15 K
ENDPOINT_LABEL: solubility (mole fraction)
Numbers only.

Query: Dear colleague, I am looking for the recorded solubility (mole fraction) of the following molecule: O=C(O)c1cc([N+](=O)[O-])ccc1O
Result: 0.0894

* * *

# RUN_CONDITIONS: in ethanol, 288.15 K
ENDPOINT_LABEL: solubility (mole fraction)
Answers are plain numbers.

Query: Given the entry O=C(O)c1cc([N+](=O)[O-])ccc1O , report its measured solubility (mole fraction).
Result: 0.0338

* * *

# RUN_CONDITIONS: in NMP, 313.15 K
ENDPOINT_LABEL: solubility (mole fraction)
Answers are plain numbers.

Query: Need solubility (mole fraction), item O=C(O)c1cc([N+](=O)[O-])ccc1O
Result: 0.187

* * *

# RUN_CONDITIONS: in n-propanol, 283.15 K
ENDPOINT_LABEL: solubility (mole fraction)
Numbers only.

Query: Entry O=C(O)c1cc([N+](=O)[O-])ccc1O : reported solubility (mole fraction) = ?
Result: 0.0266

* * *

# RUN_CONDITIONS: in ethyl acetate, 318.15 K
ENDPOINT_LABEL: solubility (mole fraction)
Answers are plain numbers.

Query: Consider the compound shown here: O=C(O)c1cc([N+](=O)[O-])ccc1O What is its recorded solubility (mole fraction)?
Result: 0.0566

* * *

# RUN_CONDITIONS: in ethanol, 283.15 K
ENDPOINT_LABEL: solubility (mole fraction)

Query: Which solubility (mole fraction) is listed for O=C(O)c1cc([N+](=O)[O-])ccc1O ?
Result: 0.0307

* * *

# RUN_CONDITIONS: in ethyl acetate, 298.15 K
ENDPOINT_LABEL: solubility (mole fraction)
Answers are plain numbers.

Query: Please report the recorded solubility (mole fraction) for O=C(O)c1cc([N+](=O)[O-])ccc1O .
Result: 0.0355

* * *

# RUN_CONDITIONS: in 1,4-dioxane, 318.15 K
ENDPOINT_LABEL: solubility (mole fraction)

Query: Bench note: what solubility (mole fraction) did O=C(O)c1cc([N+](=O)[O-])ccc1O show?
Result: 0.158

* * *

# RUN_CONDITIONS: in acetonitrile, 298.15 K
ENDPOINT_LABEL: solubility (mole fraction)

Query: Consider the compound O=C(O)c1cc([N+](=O)[O-])ccc1O and give its measured solubility (mole fraction).
Result: 0.0553
